All values here come from the supplement of paper PMC4862054.

test system: MFM-223; assay: normalised viability (% of control), CellTiter-Blue; higher = more viable cells (100 = DMSO, 0 = benzethonium chloride kill control); settings: incubation time: 72 h
quantityName: normalised viability (%)

• Nc1cc(C(F)(F)F)c(-c2cc(N3CCOCC3)nc(N3CCOCC3)n2)cn1 [BKM-120] (1 nM) = 93
• CN(C)c1nc(N(C)C)nc(N(C)C)n1 [Altretamine] (1 nM) = 95.1
• Cc1[nH]c2ccccc2c1CCNCc1ccc(/C=C/C(=O)NO)cc1 [Panobinostat] (0.1 nM) = 104
• CNC(=O)c1cc(Oc2ccc(NC(=O)Nc3ccc(Cl)c(C(F)(F)F)c3)c(F)c2)ccn1 [Regorafenib] (1 nM) = 106
• CN(C)CCOc1ccc(/C(=C(/CCCl)c2ccccc2)c2ccccc2)cc1 [Toremifene] (1 nM) = 104
